# Test system: HepG2-CANX-COX4
# ASSAY_REMARKS: lowest phenotypically active concentration; higher = less potent
# RUN_CONDITIONS: treatment time: 24 h
REPORTED_PROPERTY: lowest phenotypically active concentration

In: What measured lowest phenotypically active concentration is associated with C=C1[C@@H](O)C2C=CC[C@H](C)C(=O)[C@](C)(O)C=C[C@@H](OC(C)=O)[C@]23C(=O)N[C@H](Cc2ccccc2)[C@@H]3[C@@H]1C (stereo partly drawn) on HepG2-CANX-COX4?
Out: ≤ 0.3 µM

In: What measured lowest phenotypically active concentration is associated with Cc1sc2c(c1C)C(c1ccc(Cl)cc1)=N[C@@H](CC(=O)OC(C)(C)C)c1nnc(C)n1-2 on HepG2-CANX-COX4?
Out: ≤ 0.3 µM

In: What measured lowest phenotypically active concentration is associated with O=C(Nc1ccncc1)C(=O)c1cn(Cc2ccc(Cl)cc2)c2ccccc12 on HepG2-CANX-COX4?
Out: ≤ 0.3 µM

* * *

# Test system: WPMY1-ACTB-RAB5A
# ASSAY_REMARKS: phenotypically active (imaging signature differs from DMSO and reproducible) at any of 0.3-9 uM (binary (1 = active, 0 = inactive)); higher = active
# RUN_CONDITIONS: treatment time: 24 h
Counter-ions that a name gives are not always drawn.
The reply should name one outcome from TRUE = active, FALSE = inactive

In: Name the outcome recorded for Nc1ccncc1 [dalfampridine] in the assay.
Out: FALSE

In: Name the outcome recorded for C/C=C1/C[N+]2(C)CC[C@]34C(=C(C=O)[C@H]1C[C@@H]32)Nc1ccccc14 (some centres undefined) [Fluorocurarine chloride] in the assay.
Out: FALSE

In: Name the outcome recorded for CC[C@H]1CN2CCc3cc(OC)c(OC)cc3[C@@H]2C[C@@H]1C[C@H]1NCCc2cc(OC)c(OC)cc21 [emetine] in the assay.
Out: TRUE

In: Name the outcome recorded for C=C1[C@@H](C)[C@H]2[C@H](Cc3ccccc3)NC(=O)[C@]23OC(=O)C=C[C@H](O)CCC[C@@H](C)CC=C[C@H]3[C@@H]1O [Cytochalasin B] in the assay.
Out: TRUE

In: Name the outcome recorded for O=C1CCCN1CC#CCN1CCCC1 [Oxotremorine sesquifumarate] in the assay.
Out: FALSE

In: Name the outcome recorded for CNC(=O)Oc1ccc2c(c1)[C@]1(C)CCN(C)O[C@@H]1N2C [Geneserine] in the assay.
Out: FALSE

In: Name the outcome recorded for COc1ccc2c3c1O[C@H]1C(=O)CC[C@@]4(O)[C@@H](C2)N(C)CC[C@]314 [oxycodone] in the assay.
Out: FALSE

In: Name the outcome recorded for C=C1[C@@H](O)C2C=CC[C@H](C)C(=O)[C@](C)(O)C=C[C@@H](OC(C)=O)[C@]23C(=O)N[C@H](Cc2ccccc2)[C@@H]3[C@@H]1C (some centres undefined) [Cytochalasin D] in the assay.
Out: TRUE

In: Name the outcome recorded for C[C@H]1CC[C@@H]2N(C1)C[C@H]1[C@@H]3C[C@H]4[C@@H](CC(=O)[C@H]5C[C@@H](O)CC[C@@]54C)[C@@H]3CC[C@H]1[C@]2(C)O [Imperialine] in the assay.
Out: TRUE

In: Name the outcome recorded for CN1[C@@H]2CC[C@H]1C[C@@H](OC(=O)C(CO)c1ccccc1)C2 (some centres undefined) [Atropine sulfate monohydrate] in the assay.
Out: FALSE

In: Name the outcome recorded for O=P1(N(CCCl)CCCl)NCCCO1 (centres undefined) [cyclophosphamide] in the assay.
Out: FALSE

In: Name the outcome recorded for C[C@@H]1O[C@@H](O[C@H]2C[C@@H](O)[C@]3(CO)[C@H]4[C@H](O)C[C@]5(C)[C@@H](C6=CC(=O)OC6)CC[C@]5(O)[C@@H]4CC[C@]3(O)C2)[C@H](O)[C@H](O)[C@H]1O [Strophantine octahydrate] in the assay.
Out: TRUE

In: Name the outcome recorded for C[C@@H]1C[C@@H]([C@H](O)CC2CC(=O)NC(=O)C2)C(=O)[C@@H](C)C1 [Cycloheximide] in the assay.
Out: TRUE

In: Name the outcome recorded for COc1cc([C@@H]2c3cc4c(cc3[C@H](O)[C@H]3COC(=O)[C@H]23)OCO4)cc(OC)c1OC [Podophyllotoxin] in the assay.
Out: TRUE
